- Test system: NCI-H460 lung
- procedure text: NCI-60 one-dose screen, 48 h
- run parameters: 10 µM unless noted
Compounds without any hit were thinned out: in the full panel of roughly 83,000, 20% have a hit. Active and inactive are the calls of the source. How the source made its calls: active means growth percent below 10; inactive means the rest.
The categories you may choose from are 1.0 = active, 0.0 = inactive

O=C1Nc2c(ccc(Cl)c2Cl)/C1=C/c1ccc(F)cc1; 0.0
C=C1C(=O)O[C@H]2[C@H]1CC/C(CNC(=O)/C=C/c1ccc(Br)cc1)=C\CC[C@@]1(C)O[C@@H]21; 1.0
CCN(CC)CCSCCCNc1c(C)cnc2cc(Cl)ccc12; 0.0

Which outcome did this test record for the compound COc1ccc(-c2nc(SC)nc(N3CCOCC3)c2C#N)cc1 ?
0.0

Which outcome did this test record for the compound CCN1C(=O)N(CC)C2C1NN=c1s/c(=C3\C(=O)Nc4ccccc43)c(=O)n12 (stereo not given) ?
1.0

* * *

- Test system: HOP-62 NSCLC
- procedure text: NCI-60 one-dose screen, 48 h (100 = growth as untreated, 0 = no growth, -100 = all killed)
- run parameters: 10 µM unless noted
About 83,000 compounds went through this panel and 20% of them were active in at least one assay; those are over-represented in the sample as a whole.
measure: growth (%)
Provide only the numeric value, understood in %.

The examples below pair each entry with its known result.
COc1ccc(C(=O)c2cc3c(N)c(C(=O)Nc4cccc(Br)c4C)sc3nc2C)cc1; 28.8
CCN(CC)CCSCCCNc1c(C)cnc2cc(Cl)ccc12; 85.2
CNC(=O)Nc1ccc(-c2nc(N3CCOCC3)nc3c2cnn3C2CCOCC2)cc1; -11
COc1cc(-c2cc(=O)oc3cc(O)ccc23)cc(OC)c1OC; 87.6
O=C(Nc1cccc(Cl)c1)Oc1c(Br)c(Br)c(Br)c(Br)c1Br; 56.1

Write down growth measured for item CC(=O)OC1CCC2(C)C(CCC3C4CC=C(C(C)=O)C4(C)OC(=O)CC32)C1 (stereo not given)
61

Write down growth measured for item COc1cc2nc(-c3ccc(C(F)(F)F)cc3)cc(OCCN3CCCC3)c2cc1OC
83.6

Write down growth measured for item COc1ccc2c(/C=C3/C(=O)NC(=S)NC3C)cc(=O)oc2c1 (stereo not given)
92.8

Write down growth measured for item O=C1/C(=C\c2cn(Cc3ccccc3)c3ccc(Br)cc23)c2ccccc2N1c1c(Cl)cccc1Cl
98.5

Write down growth measured for item COc1cc(C2CC(c3cccc(Nc4ccncc4)c3)=NN2c2cc(Cl)cc(Cl)c2)cc(OC)c1OC (stereo not given)
-29.2

* * *

- System: CCRF-CEM leukemia
- procedure text: NCI-60 one-dose screen, 48 h (100 = growth as untreated, 0 = no growth, -100 = all killed)
- run parameters: 10 µM unless noted
- Experimental: Growth inhibition of the CCRF-CEM human tumor cell line is measured as a screen for anti-cancer activity. Cells are grown in 96 well plates and exposed to the test compound for 48 hours. Compounds are tested at a single concentration, which is 10^-5 M for most compounds. The reported endpoint is percent growth (GI% or GIPRCNT), where numbers from 0 - 100% represent growth inhibition, and numbers from -100% - 0 represent cell death. For example, a value of 40 represents 60% growth inhibition. […]
Compounds without any hit were thinned out: in the full panel of roughly 83,000, 20% have a hit.
measure: growth (%)
Provide only the numeric value, understood in %.

The examples below pair each entry with its known result.
O=C(O)/C=C\C(=O)N1C/C(=C\c2ccccc2Cl)C(=O)/C(=C/c2ccccc2Cl)C1; 3.66
CC(=O)c1c[nH]c2ccc(-c3ccnc(Nc4ccc(NC(=O)c5cccc(F)c5)c(CN5CCOCC5)c4)n3)cc12; 2.24
COc1ccc(-c2ncc(-c3ccccc3)[nH]2)cc1OC; 18
Cc1ccc(C(c2c(O)c3cc(Br)ccc3[nH]c2=O)c2c(O)c3cc(Br)ccc3[nH]c2=O)cc1; 80.3
Clc1nc(Nc2ccccc2)nc(Nc2ccccc2)n1; 91.7

Write down growth measured for item COc1nccnn1
99.8

Write down growth measured for item COC(=O)C1=C(C(=O)ONCCN(C)C)C2C=CC1(C(Cc1ccccc1)Nc1ccc(F)cc1)O2 (stereo unspecified)
2.02

Write down growth measured for item O=S(=O)(c1cccc(NC2=Nc3cccc4cccc2c34)c1)N1CCCC1
41.7

Write down growth measured for item Cc1c2c(cc[n+]1Cc1ccccc1)c1ccc(OCC3CCCCC3)cc1n2CC1CCCCC1
-36.2

* * *

- System: NCI-H522 lung
- procedure text: NCI-60 one-dose screen, 48 h (100 = growth as untreated, 0 = no growth, -100 = all killed)
- run parameters: 10 µM unless noted
This is part of a sample that, as a whole, favours compounds with a hit. Of some 83,000 tested, about 20% had one in any assay.
Please mark 1 if the recorded growth is equal to or greater than 30%, and -1 if it falls below.

CC(=O)N1N=C(c2cccc(Nc3ccncc3)c2)CC1c1ccccc1 (stereo not drawn); 1
CC(=O)O[C@H]1CC[C@@]2(C)[C@@H](CC[C@@H]3[C@@H]2CC[C@@]2(C)[C@H]3CC[C@]2(O)C(C)=O)C1; 1
Cc1ccc(C2CC(c3cccc(Nc4ccncc4)c3)=NN2c2cc(Cl)cc(Cl)c2)cc1 (stereo not drawn); -1
CN1CCN(C(=O)OCc2nc3c(N4CCOCC4)nc(-c4ccccc4)nc3n2C)CC1; -1
O=C(O)c1cn(C2CC2)c2cc(N3CCN(C(=O)C[n+]4cccc5ccccc54)CC3)c(F)cc2c1=O; -1
CC(O)(CO)c1ccccc1 (stereo not drawn); 1

Is the recorded value of growth equal to or greater than 30% for this compound? CCCCCCc1nc2nc(Cl)c(Cl)nc2[nH]1
1

Is the recorded value of growth equal to or greater than 30% for this compound? CCCCCN1C=C/C(=C\C(=O)N(C)c2cccc3ccccc23)c2ccccc21
1

Is the recorded value of growth equal to or greater than 30% for this compound? COc1cc2nc(-c3ccc(C#N)cc3)[nH]c(=O)c2cc1OC
1

Is the recorded value of growth equal to or greater than 30% for this compound? OC1(c2ccc(Cl)c(C(F)(F)F)c2)CCN(CCCC(c2ccc(F)cc2)c2ccc(F)cc2)CC1
-1

Is the recorded value of growth equal to or greater than 30% for this compound? O=C1C(=O)c2c(nc3ncccn23)-c2ccccc21
-1

* * *

- Tested on: OVCAR-3 ovarian
- procedure text: NCI-60 one-dose screen, 48 h
- run parameters: 10 µM unless noted
The panel holds about 83,000 compounds, 20% with a hit somewhere; the sample as a whole holds those more often. The source made the active and inactive calls. Rule for the calls: active = growth percent below 10; inactive = the rest.
The categories you may choose from are yes (1) for active, no (0) for inactive

Reference set (6 entries):
COc1ccccc1N1CCN(C(=O)c2ccc3nc(NC(=O)c4ccc(NCCc5ccccc5)c([N+](=O)[O-])c4)sc3c2)CC1; no (0)
CC(=O)c1c(-c2ccc(OC(F)(F)F)cc2)nc2ccccn12; no (0)
Fc1ccccc1CSc1ncnc2nc[nH]c12; no (0)
O=C(Nc1ccc2ncnc(Nc3ccc(Oc4cccc(F)c4)c(Cl)c3)c2c1)c1ccc(CNCCO)cc1; no (0)
O=C(Nc1ccccc1)Oc1ccccc1-c1ccccc1; no (0)
O=S(=O)(NCCCNc1nccc(-c2c(-c3cccc(O)c3)nc3occn23)n1)c1ccc(Br)cc1; no (0)

Which outcome did this test record for the compound COc1ccc(C(=O)c2cc(C)c(OC)c(C)c2)c(OC)c1O ?
yes (1)

Which outcome did this test record for the compound O=C(O)c1ccc[n+](CC(=O)N2CCN(c3cc4c(cc3F)c(=O)c(C(=O)O)cn4C3CC3)CC2)c1 ?
no (0)

Which outcome did this test record for the compound Cc1nc2sc(C(=O)Nc3cccc(Br)c3)c(N)c2cc1C(=O)c1ccc(C(F)(F)F)cc1 ?
no (0)

Which outcome did this test record for the compound Cc1ccccc1C(c1ccccc1)c1ccccc1C ?
no (0)

* * *

- System: NCI-H226 lung
- procedure text: NCI-60 one-dose screen, 48 h
- run parameters: 10 µM unless noted
The panel holds about 83,000 compounds, 20% with a hit somewhere; the sample as a whole holds those more often. Activity calls are given as the source filed them. How the source made its calls: active means growth percent below 10; inactive means the rest.
The categories you may choose from are active, inactive

COc1cc(-c2cc(=O)oc3cc(O)ccc23)c(OC)c2c1OCO2; inactive
CC(C)Sc1nc(NN)c(C#N)c(-c2ccccc2)n1; inactive
COc1ccc(/C=N/C2=C(C#N)C(c3ccccc3[N+](=O)[O-])c3ccc4ccccc4c3O2)cc1 (centres undefined); inactive
O=C(CN1CCOCC1)Nc1ccc2ncnc(Nc3ccc(Oc4cccc(C(F)(F)F)c4)c(Cl)c3)c2c1; inactive
CC(=O)O[C@H]1CC[C@@]2(C)[C@@H](CC[C@@H]3[C@@H]2CC[C@@]2(C)[C@H]3CC[C@]2(O)C(C)=O)C1; inactive

Which outcome did this test record for the molecule Cn1c(COC(=O)N2CCCCC2)nc2c(N3CCOCC3)nc(-c3ccccc3)nc21 ?
active

Which outcome did this test record for the molecule COc1ccc(C2CC(c3cccc(Nc4ccncc4)c3)=NN2c2cc(Cl)cc(Cl)c2)cc1 (centres undefined) ?
inactive

Which outcome did this test record for the molecule C(=C\c1n(Cc2ccc3ccccc3c2)c(-c2ccccc2)c(-c2ccccc2)[n+]1Cc1ccc2ccccc2c1)/c1ccccc1 ?
active

Which outcome did this test record for the molecule C[C@@H]1CN(Cc2ccc(/C=C/c3n[nH]c4ccc5nc(-c6cn[nH]c6C(F)(F)F)c6c(c5c34)CCCC6)cc2)C[C@H](C)O1 ?
inactive

Which outcome did this test record for the molecule Fc1ccc(-n2cc(COc3ncnc4sc5c(c34)CCCC5)nn2)cc1Cl ?
inactive

Which outcome did this test record for the molecule CCOC(=O)c1ccc(Nc2ccnc(SCC(=O)c3ccc(C#N)cc3)n2)cc1 ?
inactive
